system: Calu-3; experiment: relative viability EC50 (midpoint between 100% and the lowest measured viability); higher = less toxic; conditions: 72 h
measurementName: relative viability EC50

Batch request: relative viability EC50 per item, same order as input.
1. C[S+]([O-])c1ccc(-c2nc(-c3ccc(F)cc3)c(-c3ccncc3)[nH]2)cc1 (stereo not drawn)
2. O=C(O)CCc1ccc(NCc2cccc(Oc3ccccc3)c2)cc1
3. CC(C)Cc1ccc([C@@H](C)C(=O)NCCO)cc1 (racemic)

> 10 µM
> 10 µM
> 10 µM

* * *

system: Vero E6; assay: cell viability relative to DMSO; higher = less toxic; settings: 72 h; 10000 nM
I'd appreciate it if you could supply cell viability values for the items below.
Answers are plain numbers, in %.

Example entries begin here.
C[S+]([O-])c1ccc(-c2nc(-c3ccc(F)cc3)c(-c3ccncc3)[nH]2)cc1 (stereo unspecified)    92.3
CC(C)OC(=O)OCOP(=O)(CO[C@H](C)Cn1cnc2c(N)ncnc21)OCOC(=O)OC(C)C    96.7
O=C1CC(=O)c2c(Cl)c(Cl)c(Cl)c(Cl)c21    100
Cn1c(=O)c2c(ncn2CC(=O)Nc2ccc(-c3ccccc3)nn2)n(C)c1=O    94.7
O=C(Nc1ccc(Cl)cc1)Nc1ccc(Cl)c(Cl)c1    95.4

Working through the 6 compounds below one at a time, give cell viability for each.
1. O=C(O)c1cc2occc2[nH]1
2. C[C@@H]1CN([C@H]2CC[C@](C#N)(c3ccc(F)cc3)CC2)CC[C@]1(C(=O)O)c1ccccc1
3. Cc1ccccc1CN1C2=NCCN2C(=O)C2=C1CCN(Cc1ccccc1)C2
4. CN1C(C(=O)Nc2ccccn2)=C(O)c2sccc2S1(=O)=O
5. COc1ccc(C(=O)C2CCN(CC(=O)N(Cc3nc4c(c(=O)[nH]3)COCC4)CC3CC3)CC2)cc1
6. C[C@@H]1C(=O)O[C@H]2C[C@@]34[C@H]5C[C@@H](C(C)(C)C)[C@]36[C@@H](OC(=O)[C@@H]6O)O[C@@]4(C(=O)O5)[C@]21O [Ginkgolide A]

[101, 100, 103, 99.8, 65.9, 103]

The following compounds each have a reported value; give each one's cell viability.
1. Oc1cccc(Nc2ncc(F)c(Nc3cccc(O)c3)n2)c1
2. Cc1cc2c(OCC(CNC(C)(C)C)OC(=O)c3ccccc3)cccc2[nH]1 (stereo unspecified)
3. Cc1nc(-c2cn3c(n2)-c2ccc(-c4cnn(C(C)(C)C(N)=O)c4)cc2OCC3)n(C(C)C)n1

46.6
98.1
62.6

Below are some compounds; for each one, tell me its cell viability.
1. COc1ccc(C2C(=O)c3ccccc3C2=O)cc1
2. N#C/C(=C\c1ccc(O)c(O)c1)C(N)=O
3. CC(=O)NC[C@H]1CN(c2ccc(-c3ccc(CNCc4cnn[nH]4)cc3)c(F)c2)C(=O)O1
4. COc1ccc(Cn2ccc3ccc(C(=O)NO)cc32)cc1

[105, 107, 93.6, 51.5]

* * *

test system: HepG2; test: drug sensitivity score (DSS) for viability; higher = more toxic; extreme values may be limits of the assay; conditions: 72 h
Please go through the items and note down their drug sensitivity score.

Cc1cc(C(=CNc2ccc(Cl)cc2)C(=O)Nc2ccc(Cl)cc2)on1 [CCMI]    0

// for each compound below, give its drug sensitivity score
1. CCCc1nn(C)c2c(=O)[nH]c(-c3cc(S(=O)(=O)N4CCN(C)CC4)ccc3OCC)nc12 [sildenafil]
2. Cc1nc2ccccc2n1Cc1ccc(Cl)cc1 [chlormidazole]

1: 0.3; 2: 5.4
